Data credit: patent US20110305784A1

Tested on: Human breast adenocarcinoma cell MCF7
Experimental details: cells
Test parameters: MCF7, read-out: LC50 (50% lethal concentration)

Compound	CC50
CC(C)=CCc1c2c(c(O)c3c1O[C@]14C(=C[C@@H]5CC1C(C)(C)OC4(C/C=C(/C)C(=O)O)C5=O)C3=O)C=C[C@@](C)(CCC(O)C(C)(C)O)O2 (some centres unmarked) [Gh-3261, formoxanthone J]	2.8 µg/mL
CC(C)=CCC[C@]1(C)C=Cc2c(O)c3c(c(CC4OC4(C)C)c2O1)O[C@]12C(=C[C@@H]4CC1C(C)(C)OC2(C/C=C(/C)C(=O)O)C4=O)C3=O (some centres unmarked) [Gh-3352, formoxanthone E]	1.8 µg/mL
C=C(C)C(O)CC[C@]1(C)C=Cc2c(O)c3c(c(CC=C(C)C)c2O1)O[C@]12C(=C[C@@H]4CC1C(C)(C)OC2(C/C=C(/C)C(=O)O)C4=O)C3=O (some centres unmarked) [Gh-3291, formoxanthone D]	2.8 µg/mL
CC(C)=CCC[C@]1(C)C=Cc2c(O)c3c(c(CC=C(C)C)c2O1)O[C@]12C(=C[C@@H]4CC1C(C)(C)O[C@]2(C/C=C(/CO)C(=O)O)C4=O)C3=O [Gh-1601-A, 30-hydroxygambogic acid]	4.4 µg/mL
CC(C)=CCc1c2c(c(O)c3c1O[C@]14C(=C[C@@H]5CC1C(C)(C)OC4(C/C=C(/C)C(=O)O)C5=O)C3=O)C=C[C@](C)(CCC(O)C(C)(C)O)O2 (some centres unmarked) [Gh-3271, epiformoxanthone J]	0.62 µg/mL

====

# CC50 annotations
Experimental details: in vitro
Test parameters: human

Compound	Uom	CC50
C=C(C)C(O)CC[C@]1(C)C=Cc2c(O)c3c(c(CC=C(C)C)c2O1)O[C@]12C(=C[C@@H]4CC1C(C)(C)OC2(C/C=C(/C)C(=O)O)C4=O)C3=O (stereo partly shown)	µg/mL	1.4
CC(C)=CCC[C@@]1(C)C=Cc2c(O)c3c(c(CC(O)C(C)(C)O)c2O1)O[C@]12C(=C[C@@H]4CC1C(C)(C)OC2(C/C=C(/C)C(=O)O)C4=O)C3=O (stereo partly shown) [Gh-1036, epiformoxanthone F]	µg/mL	4.8
C=C(C)C1CC[C@@]2(C)Oc3c(CC=C(C)C)c4c(c(O)c3[C@@H]1C2O)C(=O)C1=C[C@@H]2CC3C(C)(C)OC(C/C=C(/C)C(=O)O)(C2=O)[C@@]13O4 (stereo partly drawn) [Gh-1050, 3α-hydroxygambogellic acid]	µg/mL	3.4
CC(C)=CCC[C@]1(C)C=Cc2c(O)c3c(c(C(O)C4OC4(C)C)c2O1)O[C@]12C(=C[C@@H]4CC1C(C)(C)OC2(C/C=C(/C)C(=O)O)C4=O)C3=O (stereo partly shown)	µg/mL	8.4

====

# CC50 annotations
System: Human histocytic lymphoma cell U937
Experimental details: cells
Test parameters: U-937, read-out: LC50 (50% lethal concentration)

Molecule	Assayed system	Result operator	CC50, µg/mL
C=C(C)C1CC[C@]2(C)C[C@H]1c1c(O)c3c(c(CC=C(C)C)c1O2)O[C@]12C(=CC4CC1C(C)(C)O[C@]2(C/C=C(/C)C(=O)O)C4=O)C3=O (some centres unmarked) [Gh-2603-2, gambogellic acid]	Human histocytic lymphoma cell U937	=	3.6
CC(C)=CCc1c2c(c(O)c3c1O[C@]14C(=C[C@@H]5CC1C(C)(C)OC4(C/C=C(/C)C(=O)O)C5=O)C3=O)C=C[C@](C)(CCC(O)C(C)(C)O)O2 (some centres unmarked) [Gh-3271, epiformoxanthone J]	Human histocytic lymphoma cell U937	=	0.35
CC(C)=CCC[C@]1(C)C=Cc2c(O)c3c(c(C(O)C4OC4(C)C)c2O1)O[C@]12C(=C[C@@H]4CC1C(C)(C)OC2(C/C=C(/C)C(=O)O)C4=O)C3=O (some centres unmarked) [Gh-3353, formoxanthone G]	Human histocytic lymphoma cell U937	=	14.6
CC(C)=CCC/C(C)=C/Cc1c(O)c(CC=C(C)C)c2c(c1O)C(=O)C1=C[C@@H]3CC4C(C)(C)OC(CC=C(C)C)(C3=O)[C@@]14O2 [Gh-4301, desoxygambogenin]	Human histocytic lymphoma cell U937	>	100
CC(C)=CCC[C@@]1(C)C=Cc2c(O)c3c(c(C(O)C4OC4(C)C)c2O1)O[C@]12C(=C[C@@H]4CC1C(C)(C)OC2(C/C=C(/C)C(=O)O)C4=O)C3=O (some centres unmarked) [Gh-3311, epiformoxanthone G]	Human histocytic lymphoma cell U937	=	5.4
CC(C)=CCC[C@@]1(C)C=Cc2c(O)c3c(c(CC=C(C)C)c2O1)O[C@]12C(=C[C@@H]4CC1C(C)(C)O[C@]2(C/C=C(/CO)C(=O)O)C4=O)C3=O [Gh-1602, 30-hydroxyepigambogic acid]	Human histocytic lymphoma cell U937	=	0.69
CC(C)=CCc1c2c(c(O)c3c1O[C@]14C(=C[C@@H]5CC1C(C)(C)OC4(C/C=C(\C)C(=O)O)C5=O)C3=O)C=CC(C)(C/C=C\C(C)(C)O)O2 (some centres unmarked) [Gh-3332, isoformoxanthone I]	Human histocytic lymphoma cell U937	=	1.4
CC(C)=CCC[C@@]1(C)C=Cc2c(O)c3c(c(CC4OC4(C)C)c2O1)O[C@]12C(=C[C@@H]4CC1C(C)(C)OC2(C/C=C(/C)C(=O)O)C4=O)C3=O (some centres unmarked) [Gh-3351, epiformoxanthone E]	Human histocytic lymphoma cell U937	=	0.62
